# Test system: ATP;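 note: ATP exposure 15 min at 22 °C before imaging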
# PROTOCOL: switch fluorescence ratio, 500 uM ATP over buffer (Cy3 cluster intensity, sum of 5 cycles each) (fold (ratio)); higher = stronger signal-on switching upon ATP binding; sequences stand for … in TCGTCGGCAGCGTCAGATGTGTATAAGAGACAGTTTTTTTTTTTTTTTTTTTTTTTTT…TC
# PROTOCOL CONDITIONS: aptamer strand: ATP DNA aptamer (quencher-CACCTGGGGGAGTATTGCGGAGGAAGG + anchor), 100 nM annealed; ATP concentration: 500 uM
MEASUREMENT KIND: switch fluorescence ratio
Give a plain numeric answer without units written out.

Note down switch fluorescence ratio recorded for CATTAAGTCT 1.02

Note down switch fluorescence ratio recorded for TTGGTTCCGC 1.53

Note down switch fluorescence ratio recorded for TTGATTTCGT 1

Note down switch fluorescence ratio recorded for ACGCTGTCGG 1.01

Note down switch fluorescence ratio recorded for AGTAAATTTA 1

Note down switch fluorescence ratio recorded for CGGTAATCGG 0.988

Note down switch fluorescence ratio recorded for TAAAGGGAGT 1

Note down switch fluorescence ratio recorded for TTGAGATCGG 1.01

Note down switch fluorescence ratio recorded for CAGACGGAGT 1.04

Note down switch fluorescence ratio recorded for TTTAATAAGT 0.998

Note down switch fluorescence ratio recorded for GGTAGTGTGG 0.992

Note down switch fluorescence ratio recorded for AAGAGTGGGA 1.03

Note down switch fluorescence ratio recorded for CGTAACATGG 1.02

Note down switch fluorescence ratio recorded for GCGGTACGCT 1.08

Note down switch fluorescence ratio recorded for AAGTCAAAGT 1.03

Note down switch fluorescence ratio recorded for TTTATGAATG 0.985

Note down switch fluorescence ratio recorded for AGCAAAAAGG 0.997

Note down switch fluorescence ratio recorded for GTTTGTACCT 1.13

Note down switch fluorescence ratio recorded for CCAGTCTGTA 0.949

Note down switch fluorescence ratio recorded for TACCCTTTTT 1.01

---

# System: ATP;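 note: ATP exposure 15 min at 22 °C before imaging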
# PROTOCOL: switch fluorescence ratio, 500 uM ATP over buffer (Cy3 cluster intensity, sum of 5 cycles each) (fold (ratio)); higher = stronger signal-on switching upon ATP binding; sequences stand for … in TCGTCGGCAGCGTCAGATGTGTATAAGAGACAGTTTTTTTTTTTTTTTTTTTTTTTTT…TC
# PROTOCOL CONDITIONS: aptamer strand: ATP DNA aptamer (quencher-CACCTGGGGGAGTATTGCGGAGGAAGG + anchor), 100 nM annealed; ATP concentration: 500 uM
Is switch fluorescence ratio at least 1? Then true. If not, false.

Decide: is the reported value of switch fluorescence ratio for TAAGGGGTGG equal to or greater than 1? false

Decide: is the reported value of switch fluorescence ratio for TTCTCTATAT equal to or greater than 1? true

Decide: is the reported value of switch fluorescence ratio for TTGGGGCATA equal to or greater than 1? true

Decide: is the reported value of switch fluorescence ratio for ATTAAGCAAG equal to or greater than 1? true

Decide: is the reported value of switch fluorescence ratio for GTTGGCACTG equal to or greater than 1? true

Decide: is the reported value of switch fluorescence ratio for GCGCTTTCAC equal to or greater than 1? true

---

# System: ATP;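 note: ATP exposure 15 min at 22 °C before imaging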
# PROTOCOL: switch fluorescence ratio, 500 uM ATP over buffer (Cy3 cluster intensity, sum of 5 cycles each) (fold (ratio)); higher = stronger signal-on switching upon ATP binding; sequences stand for … in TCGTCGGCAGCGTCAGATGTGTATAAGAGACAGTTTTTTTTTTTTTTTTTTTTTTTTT…TC
# PROTOCOL CONDITIONS: aptamer strand: ATP DNA aptamer (quencher-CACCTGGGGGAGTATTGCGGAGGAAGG + anchor), 100 nM annealed; ATP concentration: 500 uM
MEASUREMENT KIND: switch fluorescence ratio
Give a plain numeric answer without units written out.

Report switch fluorescence ratio from ATP testing of ACCTTGATTG 1.01

Report switch fluorescence ratio from ATP testing of GGTATGACCC 1.04

Report switch fluorescence ratio from ATP testing of TACGGGCGTC 1

Report switch fluorescence ratio from ATP testing of TTTCAACATA 0.999

Report switch fluorescence ratio from ATP testing of TGTAAGGAAA 1.03

Report switch fluorescence ratio from ATP testing of TTGTAGGAAC 0.998

Report switch fluorescence ratio from ATP testing of GGGAGGATTA 1

Report switch fluorescence ratio from ATP testing of CGAGCGTAGG 1.01

Report switch fluorescence ratio from ATP testing of GCTTGGGCAG 1.02

Report switch fluorescence ratio from ATP testing of TGGTCGTTTT 1.01

Report switch fluorescence ratio from ATP testing of AGGGGACGCC 0.993

Report switch fluorescence ratio from ATP testing of TTGGGGTCCC 1

Report switch fluorescence ratio from ATP testing of ATTTAAGGAC 1.04

Report switch fluorescence ratio from ATP testing of GGGGGACAGC 0.992

Report switch fluorescence ratio from ATP testing of ATTTATGGTG 0.973

Report switch fluorescence ratio from ATP testing of TATGGGAATG 1.02

Report switch fluorescence ratio from ATP testing of AACCGGTATT 0.975

Report switch fluorescence ratio from ATP testing of TTTATGTAAA 0.985

Report switch fluorescence ratio from ATP testing of GGTTGTATGG 0.975

Report switch fluorescence ratio from ATP testing of TTTCTGGGTT 1.01

Report switch fluorescence ratio from ATP testing of GAGTTTGGAC 0.985

Report switch fluorescence ratio from ATP testing of TGTACTTTTT 1.02

Report switch fluorescence ratio from ATP testing of GGGGCTGCAG 1.09

Report switch fluorescence ratio from ATP testing of TTCAATTTCC 1.01

Report switch fluorescence ratio from ATP testing of TTACGGGTAG 1.02

Report switch fluorescence ratio from ATP testing of TTGGACGGGT 1.02

Report switch fluorescence ratio from ATP testing of GAATTTTAGG 0.989

Report switch fluorescence ratio from ATP testing of ATAGGTACGC 1.04

Report switch fluorescence ratio from ATP testing of TGGTCGTCCG 0.971

Report switch fluorescence ratio from ATP testing of TTAGAGAGGC 0.961

Report switch fluorescence ratio from ATP testing of TTTGTACGCA 1.71

Report switch fluorescence ratio from ATP testing of TGGCGCTTTT 0.998

Report switch fluorescence ratio from ATP testing of AAGTGGTCCT 0.996

Report switch fluorescence ratio from ATP testing of TTGGCCTATA 0.973

Report switch fluorescence ratio from ATP testing of CGGAAGGGGA 1.05

Report switch fluorescence ratio from ATP testing of CATGGATGCC 0.998

Report switch fluorescence ratio from ATP testing of AAGCTAATGT 1.06

Report switch fluorescence ratio from ATP testing of TTCGACTTTT 0.988

Report switch fluorescence ratio from ATP testing of GGGGGGAAAT 1.01

Report switch fluorescence ratio from ATP testing of GATTTTGGAT 0.994

Report switch fluorescence ratio from ATP testing of CAGGTTACGC 1.01

Report switch fluorescence ratio from ATP testing of ACCGCGGGGG 1.03

Report switch fluorescence ratio from ATP testing of GGAGGGCTTT 0.956

---

# Tested on: ATP;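 note: ATP exposure 15 min at 22 °C before imaging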
# PROTOCOL: switch fluorescence ratio, 500 uM ATP over buffer (Cy3 cluster intensity, sum of 5 cycles each) (fold (ratio)); higher = stronger signal-on switching upon ATP binding; sequences stand for … in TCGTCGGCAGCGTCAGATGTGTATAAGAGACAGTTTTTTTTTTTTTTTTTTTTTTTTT…TC
# PROTOCOL CONDITIONS: aptamer strand: ATP DNA aptamer (quencher-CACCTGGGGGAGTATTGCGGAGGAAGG + anchor), 100 nM annealed; ATP concentration: 500 uM
MEASUREMENT KIND: switch fluorescence ratio

Note down switch fluorescence ratio recorded for ACGAATAAGG 1.03

Note down switch fluorescence ratio recorded for AGGTCGGACA 1.01

Note down switch fluorescence ratio recorded for CATTTTTGTG 0.953

Note down switch fluorescence ratio recorded for GCGGCCGAGG 1.02

Note down switch fluorescence ratio recorded for CAGTGGTCGT 0.999

Note down switch fluorescence ratio recorded for TTCGGAAGGG 0.956

Note down switch fluorescence ratio recorded for AGTACCATTG 0.997

Note down switch fluorescence ratio recorded for GGATTTACGC 1.03

Note down switch fluorescence ratio recorded for GGTTCAAGGG 0.984

Note down switch fluorescence ratio recorded for TGGTTTAGGG 0.981

Note down switch fluorescence ratio recorded for GCTGTAATAT 1.11

Note down switch fluorescence ratio recorded for ATGGTGAGGG 0.962

Note down switch fluorescence ratio recorded for CGAGGCCTGT 1.02

Note down switch fluorescence ratio recorded for TTGGGTGGCG 1.04

Note down switch fluorescence ratio recorded for AACGCTTATT 1.09

Note down switch fluorescence ratio recorded for TTACACGATA 1.32

Note down switch fluorescence ratio recorded for AGGGCTTAGA 0.99

Note down switch fluorescence ratio recorded for GGGTATGCAT 0.973

Note down switch fluorescence ratio recorded for TAGATGTTGA 0.973

Note down switch fluorescence ratio recorded for CGTTTGATGG 0.981

Note down switch fluorescence ratio recorded for AGTAAGGTTG 0.961

Note down switch fluorescence ratio recorded for CGCGGTAATT 1.05

Note down switch fluorescence ratio recorded for TGATGCTTTT 1.01

Note down switch fluorescence ratio recorded for TTGGGTATGG 0.997

Note down switch fluorescence ratio recorded for TGTGTCTACA 1

Note down switch fluorescence ratio recorded for GGGGGAGACA 0.997

Note down switch fluorescence ratio recorded for TGAGGGCAGC 0.993

Note down switch fluorescence ratio recorded for AGGTATAAGC 0.994

Note down switch fluorescence ratio recorded for GCGGTGCTTG 0.99

Note down switch fluorescence ratio recorded for TTCTGTAATT 1.02

Note down switch fluorescence ratio recorded for GGATCTACCG 1.01

Note down switch fluorescence ratio recorded for TTTACGGCCC 1.07

Note down switch fluorescence ratio recorded for GCCTAATATG 0.979

Note down switch fluorescence ratio recorded for TTGAGGTATA 0.987

Note down switch fluorescence ratio recorded for TTAATTTGAG 0.986

Note down switch fluorescence ratio recorded for GGCCACTGGA 1.02

Note down switch fluorescence ratio recorded for CCTGTGTGAC 1.34

Note down switch fluorescence ratio recorded for AAGGCCGGAA 1.04

Note down switch fluorescence ratio recorded for GGCGGGAGGG 0.986

Note down switch fluorescence ratio recorded for AAAGTTAATA 0.99

Note down switch fluorescence ratio recorded for CTAGGGTTCT 1.03

Note down switch fluorescence ratio recorded for TATTAAAGGG 0.985

Note down switch fluorescence ratio recorded for CGCGATGGCG 0.98

Note down switch fluorescence ratio recorded for TGGTGGCGTT 1.03

Note down switch fluorescence ratio recorded for GTTTGGAGGC 1.01

Note down switch fluorescence ratio recorded for GCATTTGAAA 0.978

Note down switch fluorescence ratio recorded for TTACCTCATT 1.02

Note down switch fluorescence ratio recorded for AGGCTACATA 1.03

Note down switch fluorescence ratio recorded for TTGAAATCTT 1.78

Note down switch fluorescence ratio recorded for CGGTGGGTCT 1.01

Note down switch fluorescence ratio recorded for GCCGAAAGGA 1.04

Note down switch fluorescence ratio recorded for GAGGGGTGAC 0.979

Note down switch fluorescence ratio recorded for TGCTAGCCTC 0.972

Note down switch fluorescence ratio recorded for GGGAGGCGGT 1.01

Note down switch fluorescence ratio recorded for CGCATCCTTG 1.03

Note down switch fluorescence ratio recorded for GGGGGGGTT 1

Note down switch fluorescence ratio recorded for CTAGTTATGA 1.02

Note down switch fluorescence ratio recorded for GTTTTTGAAA 0.982

Note down switch fluorescence ratio recorded for TATCGGGTCG 1.12

Note down switch fluorescence ratio recorded for ATGTTGTCAG 0.987

Note down switch fluorescence ratio recorded for GGTGGTCAGC 1.01

Note down switch fluorescence ratio recorded for TCGAGTCCTA 0.986

Note down switch fluorescence ratio recorded for AGTTAGTTGT 1

Note down switch fluorescence ratio recorded for AATTTGTTGT 0.996

Note down switch fluorescence ratio recorded for ATTTAGTACA 0.973

Note down switch fluorescence ratio recorded for AAACCAGGGG 1.54

Note down switch fluorescence ratio recorded for TAATTGTGTG 1

Note down switch fluorescence ratio recorded for GATAGGTGAG 1.01

Note down switch fluorescence ratio recorded for TGGATGCGGG 1.02

Note down switch fluorescence ratio recorded for GAAGGGGCCG 1.12

Note down switch fluorescence ratio recorded for TGGCGTTTTG 0.969

Note down switch fluorescence ratio recorded for GCGTTGGTCG 0.929

Note down switch fluorescence ratio recorded for ACCGTAGGTG 1.03

Note down switch fluorescence ratio recorded for AAAATAGGGG 1.04

Note down switch fluorescence ratio recorded for GGGGAAATTT 1.02

Note down switch fluorescence ratio recorded for TATGAGGATC 1.01

Note down switch fluorescence ratio recorded for TGAAGTCTGC 0.968

Note down switch fluorescence ratio recorded for GGAATCCGTA 1.05

Note down switch fluorescence ratio recorded for AACTATTGCG 0.988

Note down switch fluorescence ratio recorded for TGCCGGGGGG 0.99

Note down switch fluorescence ratio recorded for ACCTTCCGGG 2.37

Note down switch fluorescence ratio recorded for GCAGAGGGGA 0.981

Note down switch fluorescence ratio recorded for GCAGGTTGGC 0.992

Note down switch fluorescence ratio recorded for GGAGTTAATC 1.04

Note down switch fluorescence ratio recorded for GAGGCGTTGC 1.06

Note down switch fluorescence ratio recorded for CGCCGAGATT 1.08

All values here come from the supplement of paper PMC10126150.
